Species on record: Rattus norvegicus
Experiment: DrugMatrix - Regimen: Daily Repeat
Format: toxicity, organism-based, Sprague-Dawley
Parameters: regimen Daily Repeat, gender Male, age 6-8 weeks
Details: in vivo, po, 0 mg/kg, 72 h, tissue Plasma, route oral GAVAGE, dose level Control, time 3 day, […]
READOUT: ALBUMIN (G/DL)
Write the value in G/DL as a bare number.

Some compounds with recorded ALBUMIN:
• CCCCC(=O)N(Cc1ccc(-c2ccccc2-c2nnn[nH]2)cc1)[C@H](C(=O)O)C(C)C = 3.75
• ClC(Cl)(Cl)Cl [CARBON TETRACHLORIDE] = 4.2
• CS(=O)(=O)Nc1ccc([N+](=O)[O-])cc1Oc1ccccc1 [NIMESULIDE] = 4.07
• CCc1ccc(CCOc2ccc(CC3SC(=O)NC3=O)cc2)nc1 (stereo not drawn) [PIOGLITAZONE] = 4.55
• CC(=O)Oc1ccccc1C(=O)O [ASPIRIN] = 4.15
• c1ccoc1 [FURAN] = 4.08
• CC(C)c1c(C(=O)Nc2ccccc2)c(-c2ccccc2)c(-c2ccc(F)cc2)n1CC[C@@H](O)C[C@@H](O)CC(=O)O [ATORVASTATIN] = 4.02

Now take the following compound into account.
(Q) # get_value(readout='ALBUMIN', item= O=c1c(-c2ccc(O)cc2)coc2cc(O)cc(O)c12 [GENISTEIN] )
(A) 4.02
